ratio to parent reference
tested system: human β-Klotho extracellular domain (aa1–992) fused with a 6 × His tag at the C-terminus, Q86Z14
Sequence (Q86Z14 53-992): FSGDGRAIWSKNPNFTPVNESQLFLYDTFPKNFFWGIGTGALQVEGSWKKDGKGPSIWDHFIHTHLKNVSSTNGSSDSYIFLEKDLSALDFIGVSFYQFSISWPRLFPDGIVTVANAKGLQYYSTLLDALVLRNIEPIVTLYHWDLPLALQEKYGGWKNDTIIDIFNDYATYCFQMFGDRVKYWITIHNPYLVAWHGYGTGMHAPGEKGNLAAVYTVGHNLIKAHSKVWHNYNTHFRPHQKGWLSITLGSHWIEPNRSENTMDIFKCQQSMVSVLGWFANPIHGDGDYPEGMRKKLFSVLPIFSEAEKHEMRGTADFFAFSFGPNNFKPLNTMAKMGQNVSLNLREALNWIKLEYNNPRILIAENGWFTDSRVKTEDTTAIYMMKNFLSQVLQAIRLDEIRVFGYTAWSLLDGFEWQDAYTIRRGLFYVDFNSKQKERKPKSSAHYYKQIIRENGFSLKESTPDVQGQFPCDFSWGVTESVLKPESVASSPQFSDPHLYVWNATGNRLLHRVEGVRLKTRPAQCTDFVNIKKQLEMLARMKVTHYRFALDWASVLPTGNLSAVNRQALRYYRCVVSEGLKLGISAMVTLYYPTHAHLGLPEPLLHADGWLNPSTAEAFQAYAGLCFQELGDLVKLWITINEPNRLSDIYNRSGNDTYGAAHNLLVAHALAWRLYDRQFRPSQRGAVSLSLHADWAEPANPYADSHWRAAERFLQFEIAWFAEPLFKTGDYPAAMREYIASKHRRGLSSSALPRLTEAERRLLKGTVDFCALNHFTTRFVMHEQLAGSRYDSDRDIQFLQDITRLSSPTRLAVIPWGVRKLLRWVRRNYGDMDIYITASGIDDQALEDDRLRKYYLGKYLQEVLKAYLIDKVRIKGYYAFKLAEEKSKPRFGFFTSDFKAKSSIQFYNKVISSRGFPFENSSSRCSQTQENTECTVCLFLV
method summary: solid-phase binding assay
details: chain shown with the change;; parent: est. 1.0; read off a plot
Answer with a bare number; do not write a unit.

| binder | ratio to parent |
| --- | --- |
| mature human FGF21 polypeptide fused with the human Fc fragment at the N-terminus (Fc-FGF21), wild type, Q9NSA1 206S-R (protein) HPIPDSSPLLQFGGQVRQRYLYTDDAQQTEAHLEIREDGTVGGAADQSPESLLQLKALKPGVIQILGVKTSRFLCQRPDGALYGSLHFDPEACSFRELLLEDGYNVYQSEAHGLPLHLPGNKSPHRDPAPRGPARFLPLPGLPPALPEPPGILAPQPPDVGSSDPLSMVGPSQGRSPRYAS | 170 |
| mature human FGF21 polypeptide fused with the human Fc fragment at the N-terminus (Fc-FGF21), wild type, Q9NSA1 204S-A (protein) HPIPDSSPLLQFGGQVRQRYLYTDDAQQTEAHLEIREDGTVGGAADQSPESLLQLKALKPGVIQILGVKTSRFLCQRPDGALYGSLHFDPEACSFRELLLEDGYNVYQSEAHGLPLHLPGNKSPHRDPAPRGPARFLPLPGLPPALPEPPGILAPQPPDVGSSDPLSMVGPSQGRAPSYAS | 120 |
| mature human FGF21 polypeptide fused with the human Fc fragment at the N-terminus (Fc-FGF21), wild type, Q9NSA1 191S-A (protein) HPIPDSSPLLQFGGQVRQRYLYTDDAQQTEAHLEIREDGTVGGAADQSPESLLQLKALKPGVIQILGVKTSRFLCQRPDGALYGSLHFDPEACSFRELLLEDGYNVYQSEAHGLPLHLPGNKSPHRDPAPRGPARFLPLPGLPPALPEPPGILAPQPPDVGSADPLSMVGPSQGRSPSYAS | 0.6 |
| mature human FGF21 polypeptide fused with the human Fc fragment at the N-terminus (Fc-FGF21), wild type, Q9NSA1 191S-R (protein) HPIPDSSPLLQFGGQVRQRYLYTDDAQQTEAHLEIREDGTVGGAADQSPESLLQLKALKPGVIQILGVKTSRFLCQRPDGALYGSLHFDPEACSFRELLLEDGYNVYQSEAHGLPLHLPGNKSPHRDPAPRGPARFLPLPGLPPALPEPPGILAPQPPDVGSRDPLSMVGPSQGRSPSYAS | 350 |
| mature human FGF21 polypeptide fused with the human Fc fragment at the N-terminus (Fc-FGF21), wild type, Q9NSA1 207Y-A (protein) HPIPDSSPLLQFGGQVRQRYLYTDDAQQTEAHLEIREDGTVGGAADQSPESLLQLKALKPGVIQILGVKTSRFLCQRPDGALYGSLHFDPEACSFRELLLEDGYNVYQSEAHGLPLHLPGNKSPHRDPAPRGPARFLPLPGLPPALPEPPGILAPQPPDVGSSDPLSMVGPSQGRSPSAAS | 180 |

Task: Give the reported ratio to parent for this binder. mature human FGF21 polypeptide fused with the human Fc fragment at the N-terminus (Fc-FGF21), wild type, Q9NSA1 207Y-R (protein) HPIPDSSPLLQFGGQVRQRYLYTDDAQQTEAHLEIREDGTVGGAADQSPESLLQLKALKPGVIQILGVKTSRFLCQRPDGALYGSLHFDPEACSFRELLLEDGYNVYQSEAHGLPLHLPGNKSPHRDPAPRGPARFLPLPGLPPALPEPPGILAPQPPDVGSSDPLSMVGPSQGRSPSRAS
Result: 530

Task: Give the reported ratio to parent for this binder. mature human FGF21 polypeptide fused with the human Fc fragment at the N-terminus (Fc-FGF21), wild type, Q9NSA1 204S-R (protein) HPIPDSSPLLQFGGQVRQRYLYTDDAQQTEAHLEIREDGTVGGAADQSPESLLQLKALKPGVIQILGVKTSRFLCQRPDGALYGSLHFDPEACSFRELLLEDGYNVYQSEAHGLPLHLPGNKSPHRDPAPRGPARFLPLPGLPPALPEPPGILAPQPPDVGSSDPLSMVGPSQGRRPSYAS
Result: 250

Task: Give the reported ratio to parent for this binder. mature human FGF21 polypeptide fused with the human Fc fragment at the N-terminus (Fc-FGF21), wild type, Q9NSA1 206S-A (protein) HPIPDSSPLLQFGGQVRQRYLYTDDAQQTEAHLEIREDGTVGGAADQSPESLLQLKALKPGVIQILGVKTSRFLCQRPDGALYGSLHFDPEACSFRELLLEDGYNVYQSEAHGLPLHLPGNKSPHRDPAPRGPARFLPLPGLPPALPEPPGILAPQPPDVGSSDPLSMVGPSQGRSPAYAS
Result: 120

Provenance of the data: paper PMC6056499
